Please respond with reported Kp uu for every item in the list.
# ASSAY_PROTOCOL: Unbound brain-to-plasma concentration ratio in rat
# Format: ADME, cell-free
# DETAILS: read-out: K(p,uu,brain)

Query :: Consider the compound shown here: "COc1cc(N2CC(NC(=O)c3cn4c(C)c(C)nc4cn3)C2)c(Cl)cn1" What is its recorded Kp uu?
Result :: < 1.33

Query :: Using the record for "Cn1nnc2ccc(C(=O)NC3CN(c4cc(Cl)ncc4Cl)C3)cc21" , report its Kp uu.
Result :: < 0.11

Query :: Requested field: Kp uu. Item: "Cc1nn(C)c2cnc(C(=O)NC3CN(c4cc(Cl)ncc4Cl)C3)cc12"
Result :: < 0.45
